- assay.target: human GPR40 (Homo sapiens)
- Construct: expressed in transfected cells
- Sequence (O14842 whole entry): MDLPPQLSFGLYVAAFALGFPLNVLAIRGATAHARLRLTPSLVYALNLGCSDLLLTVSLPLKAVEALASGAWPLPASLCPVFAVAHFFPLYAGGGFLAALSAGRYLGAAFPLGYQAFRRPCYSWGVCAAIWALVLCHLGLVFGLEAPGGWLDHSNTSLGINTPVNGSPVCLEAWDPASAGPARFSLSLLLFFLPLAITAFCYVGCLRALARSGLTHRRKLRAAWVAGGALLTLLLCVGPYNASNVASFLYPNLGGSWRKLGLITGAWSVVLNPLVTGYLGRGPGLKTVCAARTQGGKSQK
- test.description: Human GPR40 agonist activity with increase in intracellular Ca2+ concentration as an index
- Type: cell-based
- conditions: test compound at final concentration 1 μM; CHO(dhfr−) cells stably expressing human GPR40; FLIPR Ca2+ fluorescence; 100% = 10 μM compound of WO 2015/020184 Example 153, 0% = DMSO
Each record here notes measured activity (human GPR40 agonist activity).
Return type: number; implicit unit %.

Some solved cases for reference:
compound	assay.target	display.unit	assay.result
COc1cc(N2CCC(COc3cc([C@@H](CC(=O)O)C4CC4)ccn3)CC2)c(C2CCN(CC(F)(F)F)CC2)cn1	human GPR40 (Homo sapiens)	%	110
COc1cc(N2CCC(COc3cc([C@@H](CC(=O)O)C4CC4)ccn3)CC2)c(NCC(F)(F)C(F)(F)F)cn1	human GPR40 (Homo sapiens)	%	106
COc1ccc(-c2cnc(OCC(F)(F)F)nc2)c(O[C@H]2CC[C@H](Oc3cc(C(CC(=O)O)C4CC4)ccn3)CC2)c1 (some centres unmarked)	human GPR40 (Homo sapiens)	%	84
COc1ccc(-c2ccc(OC)nc2)c(O[C@H]2CC[C@H](Oc3cc(C(CC(=O)O)C4CC4)ccn3)CC2)c1 (some centres unmarked)	human GPR40 (Homo sapiens)	%	80

Problem: Quick one: activity (human GPR40 agonist activity) for COc1ccc(C2CCN(CC(F)(F)F)CC2)c(O[C@H]2CC[C@H](Oc3cc(C(CC(=O)O)C4CC4)ccn3)CC2)c1 (some centres unmarked) ?
Result: 86
